Assign IC50 to each entry below.
- ASSAY SYSTEM: H1975 (EGFR L858/T790M) (Homo sapiens, UniProt P00533, L858R/T790M)
- Sequence (P00533 25-1210 T790M/L858R): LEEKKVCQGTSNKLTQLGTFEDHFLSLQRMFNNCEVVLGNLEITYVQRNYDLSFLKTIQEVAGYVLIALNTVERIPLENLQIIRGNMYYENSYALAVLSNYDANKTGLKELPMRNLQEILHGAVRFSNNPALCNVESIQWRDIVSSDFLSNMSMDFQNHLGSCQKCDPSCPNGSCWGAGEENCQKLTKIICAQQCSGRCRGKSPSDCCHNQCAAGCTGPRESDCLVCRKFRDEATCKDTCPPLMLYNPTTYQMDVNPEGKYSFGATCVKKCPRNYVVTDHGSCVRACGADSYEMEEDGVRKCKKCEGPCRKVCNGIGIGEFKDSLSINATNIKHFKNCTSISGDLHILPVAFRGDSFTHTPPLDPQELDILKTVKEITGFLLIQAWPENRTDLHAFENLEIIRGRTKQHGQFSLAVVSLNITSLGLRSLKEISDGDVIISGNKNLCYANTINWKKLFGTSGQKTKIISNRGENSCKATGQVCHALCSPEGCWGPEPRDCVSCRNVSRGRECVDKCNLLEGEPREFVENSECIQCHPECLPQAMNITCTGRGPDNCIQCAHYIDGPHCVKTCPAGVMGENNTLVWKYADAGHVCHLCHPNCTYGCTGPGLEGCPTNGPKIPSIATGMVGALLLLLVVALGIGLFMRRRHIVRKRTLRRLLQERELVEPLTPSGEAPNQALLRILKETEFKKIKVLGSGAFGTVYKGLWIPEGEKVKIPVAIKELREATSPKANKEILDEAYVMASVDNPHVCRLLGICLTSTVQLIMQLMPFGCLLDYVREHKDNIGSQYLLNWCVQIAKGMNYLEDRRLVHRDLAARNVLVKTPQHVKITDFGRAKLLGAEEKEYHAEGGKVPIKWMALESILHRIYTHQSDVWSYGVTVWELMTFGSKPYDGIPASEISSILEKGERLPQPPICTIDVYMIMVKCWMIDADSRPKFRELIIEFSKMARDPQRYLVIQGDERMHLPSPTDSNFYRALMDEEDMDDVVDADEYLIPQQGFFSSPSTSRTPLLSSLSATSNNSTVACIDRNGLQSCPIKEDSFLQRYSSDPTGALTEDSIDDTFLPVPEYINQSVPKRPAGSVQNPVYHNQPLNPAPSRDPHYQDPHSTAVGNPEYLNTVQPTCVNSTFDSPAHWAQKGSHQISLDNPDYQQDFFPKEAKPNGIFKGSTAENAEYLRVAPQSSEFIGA
- TEST SUMMARY: EGFR target modulation in H1975 cell line (phospho-EGFR Y1173 ELISA)

Entry CN(C)C/C=C/C(=O)N1CCCCC(n2c(NC(=O)c3ccnc(P(C)(C)=O)c3)nc3cccc(Cl)c32)C1 (single isomer, unassigned) [Example 21-10A] : reported IC50 = ? > 10000 nM

Entry C=CC(=O)N1CCCC[C@@H](n2c(NC(=O)c3ccnc(C)c3)nc3cc(CN4CCCC4)cc(C)c32)C1 : reported IC50 = ? < 1 nM

Entry C=CC(=O)N1CCCC[C@@H](n2c(NC(=O)c3ccnc(C)c3)nc3cc(CN4CC[C@H](F)C4)cc(C)c32)C1 : reported IC50 = ? < 1 nM
